- experimental system: T1, HLA-A*02:01 (peptide-receptive MHC class I monomer from UV-ligand exchange) (human)
- T1 construct: Monomers were captured on streptavidin-coated plates
- assay: UV-exchange ELISA (anti-b2m); exchange yield grade: + >=10%, ++ >=20%, +++ >=50%, ++++ >=75%
// peptide exchange yield lookup, one value per entry

Some solved entries appear below for comparison.
binder	reported measurement
RLIPDTLYSV [peptide RLIPDTLYSV (SEQ ID NO 3)]	≥ 75%
KLFSILSTV [peptide KLFSILSTV (SEQ ID NO 63)]	20 to 50%
SLIERDLKL [peptide SLIERDLKL (SEQ ID NO 157)]	50 to 75%
YLAHFIEGL [peptide YLAHFIEGL (SEQ ID NO 169)]	50 to 75%
SLESKLTSV [peptide SLESKLTSV (SEQ ID NO 44)]	50 to 75%
FLSSLKGGLL [peptide FLSSLKGGLL (SEQ ID NO 18)]	50 to 75%

[Q] Let me know recorded peptide exchange yield for LLGELPRLLLL [peptide LLGELPRLLLL (SEQ ID NO 110)] , thanks.
[A] 50 to 75%

[Q] Please give the documented peptide exchange yield of VLFTDEGVPKFL [peptide VLFTDEGVPKFL (SEQ ID NO 56)]
[A] 20 to 50%

Ref: patent US20160347808A1
